Give aptazyme ON/OFF ratio for every item shown.
B1: Pistol ribozyme (parent)
chain: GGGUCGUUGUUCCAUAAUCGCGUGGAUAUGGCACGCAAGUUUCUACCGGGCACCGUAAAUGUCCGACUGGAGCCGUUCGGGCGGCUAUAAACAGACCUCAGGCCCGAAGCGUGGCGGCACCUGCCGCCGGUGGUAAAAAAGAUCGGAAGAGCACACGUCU

# Variants of: B1
# ASSAY TEXT: aptazyme ON/OFF ratio, guanine; higher = stronger switching; co-transcriptional cleavage with and without guanine
Could you respond with only the numeric value?

// lookup aptazyme ON/OFF ratio for U7A U8C G9A U10G U11A C12A C13A
1.19

Now give it for U7A U8G U11A C13A too.
1.31

Now give it for U8A G9C U10C U11C C12U C13A too.
1.01

Now give it for U7A U8G G9U U10A C12A C13A too.
1.31

Now give it for U7A U8G G9C U10A U11C C12U C13G too.
1.59

Now give it for U7C G9C U10A U11C C12G too.
1.26

Now give it for U7A U8C G9A U10C U11C C12U C13G too.
1.03

Now give it for G9A U10C U11C C12U C13U too.
1.06

Now give it for U7A U8C U11G C13G too.
1.15

Now give it for U7A U8G U11A C12G C13A too.
1.11

Now give it for U7G G9C U10G U11C C12G C13G too.
1.07
